FYI, the data here is from ChEMBL document CHEMBL1137391.

System: DU-145
Experiment: Cytotoxicity against human DU145 cell line
Format: functional
Field: GI50. Provide a value for each of the compounds that follow.
Give bare numbers, in nM.

Reference set, count: 3
COc1cc2c3c(n(CCCN4CCCNCC4)c(=O)c2cc1OC)-c1cc2c(cc1C3=O)OCO2
81
O=C1c2ccccc2-c2c1c1ccccc1c(=O)n2CCCn1ccnc1
1410
COc1cc2c3c(n(CCCN4CCNCC4)c(=O)c2cc1OC)-c1cc2c(cc1C3=O)OCO2
15

Parameter requested: GI50. Apply to each item below.
1. COc1cc2c3c(n(CCCn4cccn4)c(=O)c2cc1OC)-c1cc2c(cc1C3=O)OCO2
2. COc1cc2c3c(n(CCCNCCN4CCOCC4)c(=O)c2cc1OC)-c1cc2c(cc1C3=O)OCO2

result:
[363, 603]

* * *

System: HCT-116
Test: Cytotoxicity against human HCT116 cell line
Assay type: functional
Each record gets a class by GI50: bottom range = under 0.6 µM, center range = from 0.6 µM up to 2 µM, top range = 2 µM and over

COc1cc2c3c(n(CCCN4CCC(N)CC4)c(=O)c2cc1OC)-c1cc2c(cc1C3=O)OCO2
bottom range
COc1cc2c3c(n(CCCN4CCNCC4)c(=O)c2cc1OC)-c1cc2c(cc1C3=O)OCO2
bottom range
COc1cc2c3c(n(CCCN4CCSCC4)c(=O)c2cc1OC)-c1cc2c(cc1C3=O)OCO2
top range
COc1cc2c3c(n(CCCN4CCN(CCO)CC4)c(=O)c2cc1OC)-c1cc2c(cc1C3=O)OCO2
top range
COc1cc2c3c(n(CCCN4CCCC(O)C4)c(=O)c2cc1OC)-c1cc2c(cc1C3=O)OCO2 (configuration not stated)
bottom range

query: Lab log: COc1cc2c3c(n(CCCn4ccnc4)c(=O)c2cc1OC)-c1ccccc1C3=O — assign GI50 category
result: bottom range

query: Bin? COc1cc2c3c(n(C)c(=O)c2cc1OC)-c1cc2c(cc1C3=O)OCO2
result: top range

query: Using the reported GI50, which band applies to O=C1c2ccccc2-c2c1c1ccc([N+](=O)[O-])cc1c(=O)n2CCCn1ccnc1 ?
result: bottom range

query: Into which bin does this molecule go? O=C1c2ccccc2-c2c1c1ccccc1c(=O)n2CCCn1ccnc1
result: center range

query: # bin label for COc1cc2c3c(n(CCCn4cncn4)c(=O)c2cc1OC)-c1cc2c(cc1C3=O)OCO2
result: center range

query: The entry to classify is COc1cc2c3c(n(CCCN4CCN(C)CC4)c(=O)c2cc1OC)-c1cc2c(cc1C3=O)OCO2 ; which class holds it?
result: center range

query: Exam item: assign COc1cc2c3c(n(CCCNC4=NCCS4)c(=O)c2cc1OC)-c1cc2c(cc1C3=O)OCO2 to the correct category.
result: bottom range

query: The entry to classify is COc1cc2c3c(n(CCCN4CCOCC4)c(=O)c2cc1OC)-c1cc2c(cc1C3=O)OCO2 [INDOTECAN] ; which class holds it?
result: center range

query: # bin label for COc1cc2c3c(n(CCCn4ccnc4)c(=O)c2cc1OC)-c1cc2c(cc1C3=O)OCO2
result: bottom range

query: Place this molecule in its band: COc1cc2c3c(n(CCCN4CCCNCC4)c(=O)c2cc1OC)-c1cc2c(cc1C3=O)OCO2
result: bottom range

query: Where would COc1cc2c3c(n(CCCNCCN4CCOCC4)c(=O)c2cc1OC)-c1cc2c(cc1C3=O)OCO2 land among the classes by reported GI50?
result: bottom range

* * *

Tested on: DU-145
Assay: Cytotoxicity against human DU145 cell line
Format: functional
What GI50 was measured for each of the following?

# example entries with known answers
COc1cc2c3c(n(C)c(=O)c2cc1OC)-c1cc2c(cc1C3=O)OCO2
37 µM
COc1cc2c3c(n(CCCN4CCN(C)CC4)c(=O)c2cc1OC)-c1cc2c(cc1C3=O)OCO2
10.7 µM
COc1cc2c3c(n(CCCN4CCSCC4)c(=O)c2cc1OC)-c1cc2c(cc1C3=O)OCO2
> 100 µM
COc1cc2c3c(n(CCCN4CCC(N)CC4)c(=O)c2cc1OC)-c1cc2c(cc1C3=O)OCO2
0.182 µM

Now for another entry.
According to the records, this compound COc1cc2c3c(n(CCCN4CCOCC4)c(=O)c2cc1OC)-c1cc2c(cc1C3=O)OCO2 displays GI50 of 0.155 µM

* * *

System: DU-145
Experiment: Cytotoxicity against human DU145 cell line
Assay type: functional
measured.quantity: GI50

Your task in this section: give GI50 for each listed record.
1. COc1cc2c3c(n(CCCn4ccnc4)c(=O)c2cc1OC)-c1ccccc1C3=O
2. COc1cc2c3c(n(CCCN4CCCC(O)C4)c(=O)c2cc1OC)-c1cc2c(cc1C3=O)OCO2 (centres undefined)
3. COc1cc2c3c(n(CCCn4ccnc4)c(=O)c2cc1OC)-c1cc2c(cc1C3=O)OCO2

result:
["< 10 nM", "< 5 nM", "< 10 nM"]

For COc1cc2c3c(n(CCCNC4=NCCS4)c(=O)c2cc1OC)-c1cc2c(cc1C3=O)OCO2 the molecule record lists GI50 as < 10 nM
